Below, each entry is listed alongside its reported pIC50.
- EXPERIMENTAL_TARGET: Histone-lysine N-methyltransferase SETD7 (Homo sapiens, UniProt Q8WTS6)
- Sequence (Q8WTS6 whole entry): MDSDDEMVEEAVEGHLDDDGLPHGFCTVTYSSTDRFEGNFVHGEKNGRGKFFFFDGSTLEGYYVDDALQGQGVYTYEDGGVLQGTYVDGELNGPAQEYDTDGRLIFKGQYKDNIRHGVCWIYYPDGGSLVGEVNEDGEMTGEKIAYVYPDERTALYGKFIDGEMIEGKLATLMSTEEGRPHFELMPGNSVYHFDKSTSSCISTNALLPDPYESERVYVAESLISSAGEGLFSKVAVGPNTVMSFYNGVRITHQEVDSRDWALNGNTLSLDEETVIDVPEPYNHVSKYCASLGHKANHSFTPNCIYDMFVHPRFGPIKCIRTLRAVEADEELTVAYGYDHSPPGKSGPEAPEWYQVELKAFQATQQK
- ASSAY_METHOD_TEXT: Competitive inhibition of SET7 (unknown origin) after 60 mins by AlphaLISA method in presence of SAM
pIC50: −log10 of the molar value.
ENDPOINT_NAME: pIC50

COC(=O)c1c(N)sc(C(=O)Nc2cccc([N+](=O)[O-])c2)c1C | 5.31
O=C(Nc1cccc([N+](=O)[O-])c1)c1ccc2c(c1)OCO2 | 4.21
CCOC(=O)c1c(N)sc(C(=O)Nc2cccc([N+](=O)[O-])c2)c1C | 5.34
